Data provenance is the EternaBench riboswitch data.

System: MS2 coat protein
ASSAY SUMMARY: apparent Kd, MS2 coat protein; higher = weaker binding; RNA-MaP array; FMN 200 µM where present
ASSAY SETUP: designed as: ON switch for flavin mononucleotide; no ligand
QUANTITY KIND: apparent Kd (nM)
Please state the figure in nM; there is no need to write the unit.

-- ask Find the recorded apparent Kd belonging to UAUUUUAACUAAGGAUAUCUAUAUUAUUUUGAAACAUGAGGAUCACCCAUGUUCAUGGGAUUAUAGGAGAAGGUAGAUGAAUAA and report it.
-- reply 14.6

-- ask Do the same for UUGGUUGUCGUAGGAUAUGUAGGAUAUUCCUACAUGAGGAUCACCCAUGUUCGCAUGGAAGAAGGACGGAAGGACGAUGACCAA please
-- reply 233

-- ask And for UUUUUUGUACAAGGAUAUCUAUUAUAUUCACGUCCUACAUGAGGAUCACCCAUGUUAUAUAUUUUAGAGAAGGUGUAUUGUCUG ?
-- reply 31.7

-- ask Check AAGAAACAUGAGGAUCACCCAUGUAAAUUCAAGAGAGGAUAUCGUACAUGGAAGAUUCAACGAGAAGGCUCUAGAA too.
-- reply 36.5

-- ask Then GGUCGUCACAUGAACAUGAGGAUCACCCAUGUAAAUUCUCAUGAGGAUAUGGAUCCUAAUUGGAUCCAGAAGGCGUGGACGACC ?
-- reply 953

-- ask Then what about the sequence UAGGUCGACGUAGGAUAUGUAGGAUAUUCCUACAUGAGGAUCACCCAUGUUGAAAUGGAAGAAGGACAGAAGGACGUUGACCUU ?
-- reply 56.7

-- ask Now give it for GAAUAUUCGUUGUACAUGAGGAUCACCCAUGUGACUUGACAUGAGGAUAUGGAUUCUAAUUGGAUCCAGAAGGCAUGAAUAUUC too.
-- reply 122

-- ask Please do the same for CCGUCGCACCAGAAGGCGUGAUCCACUGCGGCACGAGGAUAUGGUACAUGAGGAUCACCCAUGUCGCGAUGGAAAGCAAUCACG as well.
-- reply 151

-- ask How about CCUAAGGACACAGGAUAUAGCGUGGCGGCUGGACUCCAACGGCGAACGGCGCUAGAAGGGUGACCACAUGAGGAUCACCCAUGU ?
-- reply 495

-- ask Now the same for GGUGCAUAUGAGAAGGCGAUCAUGAAACAUGAUCGAGGAUAUCAUGUAAACAUGAGGAUCACCCAUGUAUGGGAAUAUUGCACC
-- reply 176

-- ask Record: AAAAAAAAAACAUAGGAUAUCCGGGCCGGGACAUGAGGAUCACCCAUGUCAAAAAAAAUUGGCCCGGAGAAGGAUGAAAAAAAAAA
-- reply 15.5

-- ask Again, but for AGUAAGAUGCAGAAGGUGUUAGCUAGAGCUACGACAUGAGGAUCACCCAUGUACUAGAAAACGUACAAGGAUAUGCAUCUUACA
-- reply 7.36

-- ask Next: AGGCACAUCGGAGGAUAUCAUGUAAAUACAUGAGGAUCACCCAUGUCGAUGGAGACAUCGGAGAUUGAGAAGGCCGAUGUACCG
-- reply 175

-- ask Try this sequence next: GCACGAGACUAAGGAUAUGGUGUAUCUACAUGAAACAUGAGGAUCACCCAUGUAGUAAGUAUGAUUCAGAAGGUAGAGACGUGC
-- reply 49.7
